Molecular target: Serine/threonine-protein kinase ATR (Homo sapiens, UniProt Q13535)
Sequence (Q13535 whole entry): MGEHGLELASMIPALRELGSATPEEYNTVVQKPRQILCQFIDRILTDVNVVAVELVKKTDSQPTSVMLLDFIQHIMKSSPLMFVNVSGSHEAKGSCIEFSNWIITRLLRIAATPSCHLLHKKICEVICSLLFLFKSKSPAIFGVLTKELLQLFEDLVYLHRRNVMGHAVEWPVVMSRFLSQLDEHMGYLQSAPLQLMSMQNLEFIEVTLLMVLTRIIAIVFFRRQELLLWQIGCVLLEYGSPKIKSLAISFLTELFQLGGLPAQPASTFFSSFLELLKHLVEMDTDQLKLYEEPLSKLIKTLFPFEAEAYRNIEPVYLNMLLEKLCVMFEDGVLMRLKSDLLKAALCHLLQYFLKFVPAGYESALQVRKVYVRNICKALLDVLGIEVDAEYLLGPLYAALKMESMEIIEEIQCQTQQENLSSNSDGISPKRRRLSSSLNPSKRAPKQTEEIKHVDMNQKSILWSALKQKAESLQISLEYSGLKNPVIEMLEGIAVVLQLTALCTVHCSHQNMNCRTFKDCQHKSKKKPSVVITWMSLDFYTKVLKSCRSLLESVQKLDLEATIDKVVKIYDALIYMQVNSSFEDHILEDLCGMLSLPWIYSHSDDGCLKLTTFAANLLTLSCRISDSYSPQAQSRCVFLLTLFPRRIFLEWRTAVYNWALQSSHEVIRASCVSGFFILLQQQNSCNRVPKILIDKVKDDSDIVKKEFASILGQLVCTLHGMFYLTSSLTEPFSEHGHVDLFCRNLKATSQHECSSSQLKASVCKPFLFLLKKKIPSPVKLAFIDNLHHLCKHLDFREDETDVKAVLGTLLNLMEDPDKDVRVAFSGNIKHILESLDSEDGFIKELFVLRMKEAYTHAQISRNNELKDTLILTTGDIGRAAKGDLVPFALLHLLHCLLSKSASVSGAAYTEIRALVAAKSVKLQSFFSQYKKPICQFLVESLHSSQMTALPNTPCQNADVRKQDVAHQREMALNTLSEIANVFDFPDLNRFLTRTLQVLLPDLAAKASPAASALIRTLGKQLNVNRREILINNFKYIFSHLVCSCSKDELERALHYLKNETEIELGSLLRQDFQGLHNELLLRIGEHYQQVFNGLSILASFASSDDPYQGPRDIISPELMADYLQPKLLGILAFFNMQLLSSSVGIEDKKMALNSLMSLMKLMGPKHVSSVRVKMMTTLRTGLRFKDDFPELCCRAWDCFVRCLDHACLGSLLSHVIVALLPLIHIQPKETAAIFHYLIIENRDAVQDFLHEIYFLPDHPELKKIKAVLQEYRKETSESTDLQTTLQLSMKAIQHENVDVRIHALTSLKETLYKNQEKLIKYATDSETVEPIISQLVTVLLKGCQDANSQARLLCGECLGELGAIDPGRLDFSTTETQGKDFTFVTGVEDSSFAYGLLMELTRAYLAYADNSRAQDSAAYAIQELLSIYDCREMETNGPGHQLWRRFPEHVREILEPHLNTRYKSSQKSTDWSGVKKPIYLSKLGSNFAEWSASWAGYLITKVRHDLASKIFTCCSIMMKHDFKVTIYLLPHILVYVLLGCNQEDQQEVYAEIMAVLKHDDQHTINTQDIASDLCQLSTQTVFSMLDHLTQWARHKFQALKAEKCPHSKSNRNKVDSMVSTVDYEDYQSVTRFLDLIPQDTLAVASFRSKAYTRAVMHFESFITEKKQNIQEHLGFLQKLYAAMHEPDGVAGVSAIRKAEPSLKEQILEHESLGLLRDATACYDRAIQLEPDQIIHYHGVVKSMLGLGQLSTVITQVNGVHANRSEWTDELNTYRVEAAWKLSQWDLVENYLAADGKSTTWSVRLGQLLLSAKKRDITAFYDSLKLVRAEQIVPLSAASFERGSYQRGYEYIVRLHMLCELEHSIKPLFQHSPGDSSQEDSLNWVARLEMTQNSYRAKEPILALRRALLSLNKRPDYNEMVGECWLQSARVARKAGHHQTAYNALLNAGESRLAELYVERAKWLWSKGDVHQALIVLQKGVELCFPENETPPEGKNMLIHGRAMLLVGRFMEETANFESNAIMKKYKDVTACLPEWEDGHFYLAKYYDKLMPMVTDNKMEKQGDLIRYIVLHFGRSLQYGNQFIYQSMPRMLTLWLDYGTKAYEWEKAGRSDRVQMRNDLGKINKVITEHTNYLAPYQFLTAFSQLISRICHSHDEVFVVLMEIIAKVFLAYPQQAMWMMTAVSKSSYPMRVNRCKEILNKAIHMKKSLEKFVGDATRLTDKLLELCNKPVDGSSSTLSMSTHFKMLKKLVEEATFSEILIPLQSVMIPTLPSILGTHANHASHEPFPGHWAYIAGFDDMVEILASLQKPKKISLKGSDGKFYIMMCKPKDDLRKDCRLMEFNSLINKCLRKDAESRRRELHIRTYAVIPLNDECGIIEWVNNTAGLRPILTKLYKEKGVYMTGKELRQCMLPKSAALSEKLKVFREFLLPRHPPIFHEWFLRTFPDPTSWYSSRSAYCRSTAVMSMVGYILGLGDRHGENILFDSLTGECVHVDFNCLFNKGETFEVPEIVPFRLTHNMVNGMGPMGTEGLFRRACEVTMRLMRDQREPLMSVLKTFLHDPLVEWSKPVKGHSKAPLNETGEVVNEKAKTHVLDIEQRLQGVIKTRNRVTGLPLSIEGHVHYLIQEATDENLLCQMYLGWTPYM
pIC50: −log10 of the molar value.
Rule: pIC50 under 9 gives NOT MET, otherwise MET.

Mol Smiles | Label
C[C@@H]1COCCN1c1nc(-c2cncc3[nH]ccc23)cc2c1ncn2[C@@H](C)S(C)(=O)=O | MET
C[C@@H]1COCCN1c1nc(-c2c(F)ncc3[nH]ccc23)cc2c1ncn2C | MET
C[C@@H]1COCCN1c1nc(-c2cccc3[nH]ccc23)cc2nccn12 | NOT MET
CS(=O)(=O)Cn1cnc2c(N3C4CCC3COC4)nc(-c3cncc4[nH]ccc34)cc21 | NOT MET
O=C(NC1CC1)c1cn2c(N3CCOCC3)nc(-c3cccc4[nH]ccc34)cc2n1 | NOT MET
